From: patent US7135472B2

molecular target: mKCNQ2 channels (Mus musculus, UniProt Q9Z351); construct: expressed in transfected cells; test: KCNQ whole-cell patch-clamp recordings, HEK 293 stable cell line expressing mKCNQ2 channels; type: cell-based; settings: mKCNQ2 currents, HEK 293, whole-cell patch clamp, at −40 mV
readout name: EC50 (µM)
Write the answer as a number in µM, unit excluded.

Ask: Test system mKCNQ2 channels (Mus musculus, UniProt Q9Z351); read-out EC50; what value for C[C@H](NC(=O)C=Cc1ccccc1)c1cccc(-n2cccn2)c1 ?
Result: 1.24

Ask: # iterate: C[C@H](NC(=O)CCCc1ccccc1)c1cccc(-c2cccnc2)c1
Result: 0.0007

Ask: # iterate: C[C@H](NC(=O)/C=C/c1ccccc1F)c1cccc(-n2cccn2)c1
Result: 0.123
